Target: Prostaglandin E2 receptor EP2 subtype (Homo sapiens) (UniProt P43116)
Sequence (P43116 whole entry, looked up): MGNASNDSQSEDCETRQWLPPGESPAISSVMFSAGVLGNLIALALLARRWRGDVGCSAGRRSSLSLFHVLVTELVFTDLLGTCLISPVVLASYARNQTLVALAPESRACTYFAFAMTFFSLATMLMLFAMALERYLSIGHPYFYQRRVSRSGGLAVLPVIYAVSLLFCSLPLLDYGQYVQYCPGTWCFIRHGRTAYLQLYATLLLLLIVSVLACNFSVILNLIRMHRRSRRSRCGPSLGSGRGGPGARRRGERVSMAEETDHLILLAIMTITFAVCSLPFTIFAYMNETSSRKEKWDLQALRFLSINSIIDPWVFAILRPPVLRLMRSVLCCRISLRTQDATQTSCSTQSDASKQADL
Assay: EP2 receptor modulators, cAMP readout, primary screen, cell-based, HTRF cAMP, PGE2 stimulation (AID 940);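 also: rat C6 glioma line stably carrying human EP2 under a CMV promoter; the protocol text gives 20 µM as final concentration; 100% = response of wells given 1 µM PGE2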
Settings: EP2-expressing cells, cAMP HTRF FRET, PGE2 co-stimulation; at 25 µM; active compounds read high
In all, about 260,000 compounds went through this assay and about 2,200 (0.85%) were called active. The full list was thinned out, with actives kept by preference.
measure: induction (%)
Report the figure in % without appending any unit label.

Here's what some known entries look like.
{"compound": "Cc1ccc2[nH]c(=O)c(C(c3nnnn3Cc3ccc(F)cc3)N3CCCC3)cc2c1 (stereo unspecified)", "induction / %": -4.96}
{"compound": "Cc1ccc2cc(C#N)c(SCC(=O)Nc3cccc(C)c3C)nc2c1", "induction / %": -15.3}
{"compound": "CCC(C)OC(=O)C(C)n1cnc2sc(C(=O)Nc3ccccc3OC)c(C)c2c1=O (stereo unspecified)", "induction / %": -16.1}
{"compound": "NC(=O)Cn1c(=O)oc2ccccc21", "induction / %": 8.45}
{"compound": "C=CCNC(=O)CSc1nc(-c2ccc(OC)cc2)cc(C(F)(F)F)n1", "induction / %": -95.2}
{"compound": "Cc1ccc(Cn2c3ccccc3n3c(SCC(=O)N4CCc5ccccc54)nnc23)cc1", "induction / %": -8.29}

Incoming: Checklist item: induction tested on Prostaglandin E2 receptor EP2 subtype (Homo sapiens) (UniProt P43116), entry Cc1ccc(OCCCn2c(=O)oc3ccccc32)cc1 , value?
Outgoing: -12.8

Incoming: Checklist item: induction tested on Prostaglandin E2 receptor EP2 subtype (Homo sapiens) (UniProt P43116), entry COc1ccc2nc(C)cc(SCC(=O)Nc3ccccc3Br)c2c1 , value?
Outgoing: -51.4

Incoming: Checklist item: induction tested on Prostaglandin E2 receptor EP2 subtype (Homo sapiens) (UniProt P43116), entry CCc1cc2ccccc2nc1SCC(=O)Nc1ccccc1Br , value?
Outgoing: 65.9

Incoming: Checklist item: induction tested on Prostaglandin E2 receptor EP2 subtype (Homo sapiens) (UniProt P43116), entry COc1ccc(C2(NCc3ccccc3-n3cccn3)CC2)cc1 , value?
Outgoing: 7.61

Incoming: Checklist item: induction tested on Prostaglandin E2 receptor EP2 subtype (Homo sapiens) (UniProt P43116), entry O=c1oc2ccccc2n1CCCOc1cccc2ccccc12 , value?
Outgoing: 74.5

###

Target: Prostaglandin E2 receptor EP2 subtype (Homo sapiens)
Assay: EP2 receptor modulators, cAMP readout, primary screen, cell-based, HTRF cAMP, PGE2 stimulation (AID 940);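 also: rat C6 glioma line stably carrying human EP2 under a CMV promoter; the protocol text gives 20 µM as final concentration; 100% = response of wells given 1 µM PGE2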
Conditions: EP2-expressing cells, cAMP HTRF FRET, PGE2 co-stimulation; at 25 µM
Out of some 260,000 compounds screened, about 2,200 (0.85%) were called active.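 How the source made its calls: active means compounds whose cAMP rise, as percent of the full-agonist control response, exceeds 60; inactive means the rest.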 This excerpt belongs to a sample that is enriched for actives.
Field 'call' accepts active, inactive

{"compound": "CC(C)(C)OC(=O)N1CCC[C@H]1C(=O)c1nc2ccccc2s1", "assigned class": "inactive"}
{"compound": "COc1ccc(S(=O)(=O)NCc2ccc3c(c2)OCO3)c(Cl)c1Cl", "assigned class": "inactive"}
{"compound": "CCC1(CC)Cc2ccccc2-c2nc3ccccc3c(=O)n21", "assigned class": "inactive"}
{"compound": "COc1cc(-c2nnc(SCC(=O)N3CCC(C)CC3)o2)cc(OC)c1OC", "assigned class": "inactive"}
{"compound": "Cc1ccc(NC(=O)CSc2nnnn2-c2ccc3c(c2)OCO3)cc1", "assigned class": "inactive"}
{"compound": "COc1cc(C2C(C#N)=C(N)Oc3c2c(C)nn3-c2ccccc2)ccc1OCC#N (stereo unspecified)", "assigned class": "inactive"}
{"compound": "Cn1c(=O)sc2cc(S(=O)(=O)NC3(c4ccccc4F)CC3)ccc21", "assigned class": "inactive"}
{"compound": "c1cncc(-c2nnc3n2C2(CCCCC2)Cc2ccccc2-3)c1", "assigned class": "inactive"}
{"compound": "Cc1occc1-c1nn(C2CCN(S(=O)(=O)N(C)C)CC2)c(=O)o1", "assigned class": "inactive"}
{"compound": "CCN1c2ncccc2C(=O)NC12CCN(C(=O)c1cccc3c1C(=O)N(C)C3)CC2", "assigned class": "inactive"}

Kindly consider the entry below.
Incoming: How did this test come out for O=c1c2ccccc2nc2n1C1(CCCCC1)Cc1ccccc1-2 ?
Outgoing: active
